The measurements presented in this section are drawn from patent US20040086901A1.

Test system: NIH3T3 cells overexpressing HSP9O
Assay: MTT cell viability, HSP9O overexpressing cells vs parental line
Type: cell-based, mouse
Settings: HSP9O high-expressing cells / parental cell line, 3 to 4 days
Rule: logarithmic value of ratio of IC40 values under 0.2 gives FALSE, otherwise TRUE.

Worked examples follow.
C[C@@H]1C[C@@H]([C@H](O)CC2CC(=O)NC(=O)C2)C(=O)[C@@H](C)C1 [CHX, cycloheximide] | FALSE
Nc1nc2nc[nH]c2c(=S)[nH]1 [6-TG, 6-thioguanine] | TRUE
COc1ccc2c(c1)CC[C@@H]1[C@@H]2CC[C@]2(C)[C@@H](NCCCCCCN3C(=O)C=CC3=O)CC[C@@H]12 [U73122] | FALSE

Lookup: Could you please find out whether CO[C@H]1[C@@H](OC)C[C@H](C)[C@@H](OC)C2=CC(=O)C=C(NC(=O)/C(C)=C/C=C\[C@H](OC)[C@@H](OC(N)=O)/C(C)=C/[C@@H]1C)C2=O [HMA, herbimycin A] has logarithmic value of ratio of IC40 values that meets 0.2 or exceeds it?
Found: TRUE

Lookup: Could you please find out whether CNc1ccc2oc(C[C@H]3O[C@@]4(CC[C@H]3C)O[C@H]([C@H](C)C(=O)c3ccc[nH]3)[C@H](C)C[C@H]4C)nc2c1C(=O)O [A23187] has logarithmic value of ratio of IC40 values that meets 0.2 or exceeds it?
Found: TRUE

Lookup: Could you please find out whether C/C=C(/C)C(=O)O[C@H]1C(C)=C2[C@H]([C@@H]1OC(=O)CCCCCCC)[C@@](C)(OC(C)=O)C[C@H](OC(=O)CCC)[C@@]1(O)[C@H]2OC(=O)[C@@]1(C)O [Thapsigargin, thapsigargin] has logarithmic value of ratio of IC40 values that meets 0.2 or exceeds it?
Found: FALSE

Lookup: Could you please find out whether COC(=O)[C@@]1(O)C[C@H]2O[C@]1(C)n1c3ccccc3c3c4c(c5c6ccccc6n2c5c31)C(=O)NC4 [K252a] has logarithmic value of ratio of IC40 values that meets 0.2 or exceeds it?
Found: TRUE

----------
System: NIH3T3 cells overexpressing DAN
Assay: MTT cell viability, DAN overexpressing cells vs parental line
Assay type: cell-based, mouse
Details: DAN high-expressing cells / parental cell line, 3 to 4 days
Exam item: assign rule met to entries whose logarithmic value of ratio of IC40 values is below 0.2 and rule not met to entries at or above 0.2. Note that a value of exactly 0.2 receives rule not met.

CNc1ccc2oc(C[C@H]3O[C@@]4(CC[C@H]3C)O[C@H]([C@H](C)C(=O)c3ccc[nH]3)[C@H](C)C[C@H]4C)nc2c1C(=O)O | rule not met

Lookup: Given the entry COC[C@H]1OC(=O)c2coc3c2[C@@]1(C)C1=C(C3=O)[C@@H]2CCC(=O)[C@@]2(C)C[C@H]1OC(C)=O , would its reported logarithmic value of ratio of IC40 values be below 0.2?
Found: rule not met

Lookup: Given the entry C/C=C(/C)C(=O)O[C@H]1C(C)=C2[C@H]([C@@H]1OC(=O)CCCCCCC)[C@@](C)(OC(C)=O)C[C@H](OC(=O)CCC)[C@@]1(O)[C@H]2OC(=O)[C@@]1(C)O , would its reported logarithmic value of ratio of IC40 values be below 0.2?
Found: rule met

Lookup: Given the entry Nc1nc2nc[nH]c2c(=S)[nH]1 , would its reported logarithmic value of ratio of IC40 values be below 0.2?
Found: rule not met

Lookup: Given the entry CCCC[C@@H](C)/C=C(C)/C=C(\C)C(=O)NC1=C[C@@](O)(/C=C/C=C/C=C/C(=O)NC2=C(O)CCC2=O)[C@@H]2O[C@@H]2C1=O , would its reported logarithmic value of ratio of IC40 values be below 0.2?
Found: rule met

Lookup: Given the entry CN(C)CCCn1cc(C2=C(c3c[nH]c4ccccc34)C(=O)NC2=O)c2ccccc21 [GF109203X] , would its reported logarithmic value of ratio of IC40 values be below 0.2?
Found: rule not met

Lookup: Given the entry C[C@@H]1O[C@@H](O[C@H]2C[C@@H](O)[C@]3(CO)[C@H]4[C@H](O)C[C@]5(C)[C@@H](C6=CC(=O)OC6)CC[C@]5(O)[C@@H]4CC[C@]3(O)C2)[C@H](O)[C@H](O)[C@H]1O , would its reported logarithmic value of ratio of IC40 values be below 0.2?
Found: rule not met

Lookup: Given the entry CN[C@@H]1C[C@H]2O[C@@](C)([C@@H]1OC)n1c3ccccc3c3c4c(c5c6ccccc6n2c5c31)C(=O)NC4 , would its reported logarithmic value of ratio of IC40 values be below 0.2?
Found: rule not met
